Values compiled from ChEMBL document CHEMBL5584285.

- measured-on: GTPase KRas (Homo sapiens, UniProt P01116, G12V)
- Sequence (P01116 whole entry G12V): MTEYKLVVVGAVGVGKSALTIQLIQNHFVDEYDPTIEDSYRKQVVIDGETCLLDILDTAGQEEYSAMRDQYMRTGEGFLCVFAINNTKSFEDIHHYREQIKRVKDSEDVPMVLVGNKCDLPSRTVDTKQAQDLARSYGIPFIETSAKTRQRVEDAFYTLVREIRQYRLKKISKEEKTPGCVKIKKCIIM
- protocol-notes: Induction of KRAS G12V mutant degradation in human SW1990 cells incubated for 24 hrs
- Assay type: cell-based
readout-kind: DC50

See these solved cases before continuing.
molecule=CCc1c(F)ccc2cc(O)cc(-c3ncc4c(N5CCC[C@]6(CCO6)C5)nc(OCC5(CN6CCC(CN7CCN(c8ccc9c(c8)CN([C@H]8CCC(=O)NC8=O)C9=O)CC7)CC6)CC5)nc4c3F)c12 experimental_result="1 nM"
molecule="CCc1cccc2cc(O)cc(-c3ncc4c(N5CCC[C@@](C)(O)C5)nc(OCC5(CN6CCC(OC7CCN(c8ccc9c(c8)CN(C8CCC(=O)NC8=O)C9=O)CC7)CC6)CC5)nc4c3F)c12 (stereo partly drawn)" experimental_result="≤ 1 nM"

// switching to the query molecule
Q) Please report DC50 for the following molecule: "CCc1c(F)ccc2cc(O)cc(-c3ncc4c(N5CCC[C@@](C)(O)C5)nc(OCC5(CN6CCC7(CC6)CC(N6CCN(c8ccc9c(c8)CN([C@H]8CCC(=O)NC8=O)C9=O)CC6)C7)CC5)nc4c3F)c12"
A) ≤ 1 nM

---

- protocol-notes: Binding affinity to 6His-tagged KRAS G12V mutant /GST-tagged RAF1 (unknown origin) incubated for 60 mins by fluorescence based microplate reader assay
- Set-up: species or system Homo sapiens
pIC50: −log10 of the molar value.
readout-kind: pIC50

See these solved cases before continuing.
compound=CCc1c(F)ccc2cc(O)cc(-c3ncc4c(N5CCC[C@@](C)(O)C5)nc(OCC5(CN6CCC(C)(CN7CC8(CCN(c9ccc%10c(c9)CN([C@H]9CCC(=O)NC9=O)C%10=O)CC8)C7)CC6)CC5)nc4c3F)c12 experimental_result="≥ 7.70"
compound=CCc1c(F)ccc2cc(O)cc(-c3ncc4c(N5CCC[C@@](C)(O)C5)nc(OCC5(CN6CCC7(CC6)CC(N6CCN(c8ccc9c(c8)CN([C@H]8CCC(=O)NC8=O)C9=O)CC6)C7)CC5)nc4c3F)c12 experimental_result="≥ 7.70"

Q) Please report pIC50 for the following compound: CCc1c(F)ccc2cc(O)cc(-c3ncc4c(N5CCC[C@@](C)(O)C5)nc(OCC5(CN6CCC(OC7CCN(C8CCN(c9ccc%10c(c9)CN(C9CCC(=O)NC9=O)C%10=O)CC8)CC7)CC6)CC5)nc4c3F)c12 (stereo partly drawn)
A) ≥ 7.70

---

- protocol-notes: Binding affinity to 6His-tagged KRAS G12V mutant /GST-tagged RAF1 (unknown origin) incubated for 60 mins by fluorescence based microplate reader assay
- Set-up: species or system Homo sapiens
pIC50: −log10 of the molar value.
readout-kind: pIC50

compound="CCc1cccc2cc(O)cc(-c3ncc4c(N5CCC[C@@](C)(O)C5)nc(OCC5(CN6CCC(OC7CCN(c8ccc9c(c8)CN(C8CCC(=O)NC8=O)C9=O)CC7)CC6)CC5)nc4c3F)c12 (stereo partly drawn)" readout_kind=pIC50 experimental_result=7.70
compound=CCc1c(F)ccc2cc(O)cc(-c3ncc4c(N5CCC[C@]6(CCO6)C5)nc(OCC5(CN6CCC(CN7CCN(c8ccc9c(c8)CN([C@H]8CCC(=O)NC8=O)C9=O)CC7)CC6)CC5)nc4c3F)c12 readout_kind=pIC50 experimental_result=7.70
